assay-readout: melting point

{"structure": "COc1cc(Nc2c(C#N)cnc3cc(-c4ccc(CN5CCOCC5)o4)ccc23)c(Cl)cc1Cl", "assay-readout": "melting point", "result": "182 to 183 °C"}
{"structure": "COc1cc(Nc2c(C#N)cnc3cc(-c4ccc(CN5CCOCC5)cc4)ccc23)c(Cl)cc1C", "assay-readout": "melting point", "result": "140 to 143 °C"}
{"structure": "CN1CCN(Cc2cccc(-c3ccc4c(Nc5ccc(Sc6nccn6C)c(Cl)c5)c(C#N)cnc4c3)n2)CC1", "assay-readout": "melting point", "result": "157 to 159 °C"}
{"structure": "COc1cc(Nc2c(C#N)cnc3cc(-c4ccc(CNCCc5ccccn5)cc4)ccc23)c(Cl)cc1Cl", "assay-readout": "melting point", "result": "256 to 258 °C"}
{"structure": "Cn1ccnc1Sc1ccc(Nc2c(C#N)cnc3cc(-c4ccc(CN5CCC(O)CC5)cc4)ccc23)cc1Cl", "assay-readout": "melting point", "result": "230 to 232 °C"}
{"structure": "COc1cc(Nc2c(C#N)cnc3cc(-c4ccc(CO)cc4)ccc23)c(Cl)cc1Cl", "assay-readout": "melting point", "result": "264 to 267 °C"}
{"structure": "COc1cc(Nc2c(C#N)cnc3cc(-c4cnc(CN5CCN(C)CC5)n4C)ccc23)c(Cl)cc1Cl", "assay-readout": "melting point", "result": "156 to 159 °C"}
